system: CD80/PD-L1 binding (Homo sapiens)
Construct: 10698-H08H-100 (His-CD80)
Sequence (Q9NZQ7 19-239 limits assumed): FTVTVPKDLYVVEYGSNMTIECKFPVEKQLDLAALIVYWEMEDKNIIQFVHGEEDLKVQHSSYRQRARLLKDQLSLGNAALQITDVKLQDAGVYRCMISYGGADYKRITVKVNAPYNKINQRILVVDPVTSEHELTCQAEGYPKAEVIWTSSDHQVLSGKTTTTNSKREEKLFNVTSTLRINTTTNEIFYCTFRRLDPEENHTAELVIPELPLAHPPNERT
assay: HTRF inhibition of CD80/PD-L1 binding in vitro
applied conditions: His-CD80 100 nM, PD-L1-Fc 2 nM, read-out: IC50 inhibiting CD80/PD-L1 binding in vitro
Below is a list of entries, each paired with its recorded IC50 value.
recorded metric: IC50 (nM)

compound=[2H]c1c([2H])c(NC(=O)c2nc3c(n2C([2H])([2H])[2H])CCN(CCC24CCC(COC([2H])([2H])[2H])(CC2)C4)C3)c(Cl)c(-c2c([2H])c([2H])c([2H])c(NC(=O)c3nc4c(n3C([2H])([2H])[2H])CCN(CCC35CCC(C(=O)O)(CC3)C5)C4)c2Cl)c1[2H] value_unit=nM measured=1.44
compound=[2H]C([2H])([2H])OCC12CCC(CCN3CCc4c(nc(C(=O)Nc5cccc(-c6cccc(NC(=O)c7nc8c(n7C([2H])([2H])[2H])CCN(CCC79CCC(C(=O)O)(CC7)C9)C8)c6Cl)c5Cl)n4C([2H])([2H])[2H])C3)(CC1)C2 value_unit=nM measured=1.12
compound=[2H]C([2H])([2H])OCC12CCC(CCN3CCc4c(nc(C(=O)Nc5cccc(-c6cccc(NC(=O)c7nc8c(n7C)CCN(CCC79CCC(C(=O)O)(CC7)C9)C8)c6Cl)c5C)n4C)C3)(CC1)C2 value_unit=nM measured=1.75
compound=[2H]C([2H])([2H])OCC12CCC(CCN3CCc4c(nc(C(=O)Nc5cccc(-c6cccc(NC(=O)c7nc8c(n7C)CCN(CCC79CCC(C(=O)O)(CC7)C9)C8)c6Cl)c5Cl)n4C)C3)(CC1)C2 value_unit=nM measured=0.58
compound="[2H]C([2H])([2H])OCC12CCC(CCN3CCc4c(nc(C(=O)Nc5cccc(-c6cccc(NC(=O)c7nc8c(n7C)CCN(CCC79CCC(C(=O)O)(CC7)C9)C8)c6Cl)c5F)n4C)C3)(CC1)C2 (single isomer, unassigned)" value_unit=nM measured=1.09
compound="[2H]c1c([2H])c(NC(=O)c2nc3c(n2C)CCN(CCC24CCC(COC([2H])([2H])[2H])(CC2)C4)C3)c(F)c(-c2c([2H])c([2H])c([2H])c(NC(=O)c3nc4c(n3C)CCN(CCC35CCC(C(=O)O)(CC3)C5)C4)c2Cl)c1[2H] (single isomer, unassigned)" value_unit=nM measured=0.37

====

Reported Ratio of I-1 to control molecule (tumor tissue concentration) values follow for various compounds
assay: Tumor tissue distribution assay in MC38-PD-L1 tumor-bearing mice
Format: in vivo, B-hPD-1/hPD-L1 humanized mice
applied conditions: 24 h after administration on the 18th day, 50 mg/kg oral once/day
recorded metric: Ratio of I-1 to control molecule (tumor tissue concentration)

smi=[2H]C([2H])([2H])OCC12CCC(CCN3CCc4c(nc(C(=O)Nc5cccc(-c6cccc(NC(=O)c7nc8c(n7C)CCN(CCC79CCC(C(=O)O)(CC7)C9)C8)c6Cl)c5Cl)n4C)C3)(CC1)C2 measured=1.0
smi=Cc1c(Nc2nccc3cc(CN4CC[C@@H](O)C4)cnc23)cccc1-c1cccc(-c2nc3cc(CN4CC[C@@H](C(=O)O)C4)cc(C#N)c3o2)c1C measured=7.6
smi=Cn1c(C(=O)Nc2cccc(-c3cccc(NC(=O)c4nc5c(n4C)CCN(CC46CCC(C(=O)O)(CC4)C6)C5)c3Cl)c2Cl)nc2c1CCN(CCO)C2 measured=30.2
smi=Cn1c(C(=O)Nc2cccc(-c3cccc(NC(=O)c4nc5c(n4C)CCN(CCC46CCC(C(=O)O)(CC4)C6)C5)c3Cl)c2Cl)nc2c1CCN(CCC13CCC(C(=O)O)(CC1)C3)C2 measured=27.2

====

assay: Pharmacokinetic assay after repeated oral administration
Type: in vivo, B-hPD-1/hPD-L1 mice
applied conditions: female, B-hPD-1/hPD-L1, mouse; plasma, 50 mg/kg oral once a day, after administration on the 18th day
Items are presented alongside their recorded AUC(0-t).
recorded metric: AUC(0-t) (ng·h/mL)

smi=[2H]C([2H])([2H])OCC12CCC(CCN3CCc4c(nc(C(=O)Nc5cccc(-c6cccc(NC(=O)c7nc8c(n7C)CCN(CCC79CCC(C(=O)O)(CC7)C9)C8)c6Cl)c5Cl)n4C)C3)(CC1)C2 value_unit=ng·h/mL measured=123000
smi=Cc1c(Nc2nccc3cc(CN4CC[C@@H](O)C4)cnc23)cccc1-c1cccc(-c2nc3cc(CN4CC[C@@H](C(=O)O)C4)cc(C#N)c3o2)c1C value_unit=ng·h/mL measured=15800
smi=Cn1c(C(=O)Nc2cccc(-c3cccc(NC(=O)c4nc5c(n4C)CCN(CCC46CCC(C(=O)O)(CC4)C6)C5)c3Cl)c2Cl)nc2c1CCN(CCC13CCC(C(=O)O)(CC1)C3)C2 value_unit=ng·h/mL measured=67400
smi=Cn1c(C(=O)Nc2cccc(-c3cccc(NC(=O)c4nc5c(n4C)CCN(CC46CCC(C(=O)O)(CC4)C6)C5)c3Cl)c2Cl)nc2c1CCN(CCO)C2 value_unit=ng·h/mL measured=33700

====

assay: Pharmacokinetic assay after repeated oral administration
Format: in vivo, B-hPD-1/hPD-L1 mice
applied conditions: female, B-hPD-1/hPD-L1, mouse; plasma, 50 mg/kg oral once a day, after administration on the 18th day
recorded metric: MRT (h)

molecule="Cn1c(C(=O)Nc2cccc(-c3cccc(NC(=O)c4nc5c(n4C)CCN(CC46CCC(C(=O)O)(CC4)C6)C5)c3Cl)c2Cl)nc2c1CCN(CCO)C2 [Example 180]" measured=5.6
molecule="[2H]C([2H])([2H])OCC12CCC(CCN3CCc4c(nc(C(=O)Nc5cccc(-c6cccc(NC(=O)c7nc8c(n7C)CCN(CCC79CCC(C(=O)O)(CC7)C9)C8)c6Cl)c5Cl)n4C)C3)(CC1)C2 [Compound I-1]" measured=13.5
molecule="Cc1c(Nc2nccc3cc(CN4CC[C@@H](O)C4)cnc23)cccc1-c1cccc(-c2nc3cc(CN4CC[C@@H](C(=O)O)C4)cc(C#N)c3o2)c1C [Compound 14 (INCB086550)]" measured=5.1
molecule="Cn1c(C(=O)Nc2cccc(-c3cccc(NC(=O)c4nc5c(n4C)CCN(CCC46CCC(C(=O)O)(CC4)C6)C5)c3Cl)c2Cl)nc2c1CCN(CCC13CCC(C(=O)O)(CC1)C3)C2 [Example 17]" measured=5.8

====

List of pIC50 values.
system: PD-1/PD-L1 binding (Homo sapiens, UniProt Q9NZQ7)
Construct: 10377-H08H-50 (His-PD-1)
Sequence (Q9NZQ7 19-239 limits assumed): as above
assay: HTRF inhibition of PD-1/PD-L1 binding in vitro
applied conditions: His-PD-1 100 nM, PD-L1-Fc 2 nM, read-out: IC50 inhibiting PD-1/PD-L1 binding in vitro
Method: Homogeneous Time-Resolved Fluorescence (HTRF): This method used the recombinant human PD-L1 protein fused to express the hFc tag and the recombinant human PD-1 protein fused to express the His tag, both of which were interacting ligands and receptors. […] (4) The fluorescence signal of each well was measured using a fluorescence detector Tecan (Spark 10M) at an excitation wavelength of 320 nm, and emission wavelengths of 620 nm and 665 nm, respectively. […]
pIC50: −log10 of the molar value.
recorded metric: pIC50

compound=[2H]C([2H])([2H])OCC12CCC(CCN3CCc4c(nc(C(=O)Nc5cccc(-c6cccc(NC(=O)c7nc8c(n7C)CCN(CCC79CCC(C(=O)O)(CC7)C9)C8)c6Cl)c5Cl)n4C)C3)(CC1)C2 measured=9.14
compound=[2H]c1c([2H])c(NC(=O)c2nc3c(n2C([2H])([2H])[2H])CCN(CCC24CCC(COC([2H])([2H])[2H])(CC2)C4)C3)c(Cl)c(-c2c([2H])c([2H])c([2H])c(NC(=O)c3nc4c(n3C([2H])([2H])[2H])CCN(CCC35CCC(C(=O)O)(CC3)C5)C4)c2Cl)c1[2H] measured=8.91
compound="[2H]C([2H])([2H])n1c(C(=O)Nc2cccc(-c3cccc(NC(=O)c4nc5c(n4C([2H])([2H])[2H])CCN(CCC46CCC(C(=O)O)(CC4)C6)C5)c3Cl)c2F)nc2c1CCN(CCC13CCC(COC)(CC1)C3)C2 (single isomer, unassigned)" measured=8.79
compound="[2H]c1c([2H])c(NC(=O)c2nc3c(n2C)CCN(CCC24CCC(COC([2H])([2H])[2H])(CC2)C4)C3)c(F)c(-c2c([2H])c([2H])c([2H])c(NC(=O)c3nc4c(n3C)CCN(CCC35CCC(C(=O)O)(CC3)C5)C4)c2Cl)c1[2H] (single isomer, unassigned)" measured=9.29
compound=[2H]C([2H])([2H])OCC12CCC(CCN3CCc4c(nc(C(=O)Nc5cccc(-c6cccc(NC(=O)c7nc8c(n7C([2H])([2H])[2H])CCN(CCC79CCC(C(=O)O)(CC7)C9)C8)c6Cl)c5C)n4C([2H])([2H])[2H])C3)(CC1)C2 measured=8.42
compound=[2H]C([2H])([2H])OCC12CCC(CCN3CCc4c(nc(C(=O)Nc5cccc(-c6cccc(NC(=O)c7nc8c(n7C)CCN(CCC79CCC(C(=O)O)(CC7)C9)C8)c6C)c5Cl)n4C)C3)(CC1)C2 measured=8.54
